Documented PBM binding z-score across a set of sequences
- System: RARa homodimer (NR concentration 270 nM)
- measurementDescription: PBM binding z-score (relative to random genomic background probes); higher = stronger binding; sequences stand for … in GC…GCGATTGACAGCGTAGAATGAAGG
Could you keep your reply to the number by itself?

// below: answered sequences
                      sequencecontent                               assaytarget              measure  reported
0  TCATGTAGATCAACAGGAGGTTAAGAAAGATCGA  RARa homodimer (NR concentration 270 nM)  PBM binding z-score     0.399
1  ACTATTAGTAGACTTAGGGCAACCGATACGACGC  RARa homodimer (NR concentration 270 nM)  PBM binding z-score     0.917
2  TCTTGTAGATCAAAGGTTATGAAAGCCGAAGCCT  RARa homodimer (NR concentration 270 nM)  PBM binding z-score    -0.114

Okay, now this sequence:
# input Requested field: PBM binding z-score. Item: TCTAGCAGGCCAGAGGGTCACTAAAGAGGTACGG
# output -0.574
